- system-tested: Metabotropic glutamate receptor 8 (Rattus norvegicus)
- assay-comment: mGluR8 Gi/Go-coupled signaling modulation – cell-based, rat, thallium flux, HTS, primary screen (AID 488969)
- study-conditions: HEK293 rat mGluR8, GIRK thallium flux, FluoZin2; at 10 µM; stronger effect = higher value; submaximal glutamate (EC20) added with thallium
Over roughly 110,000 compounds, “z-score” has its median near -0.1; the highest 2% begin near 2. For the sample, the highest values were picked, then their nearest neighbours and some compounds at random.
outcome-measure: z-score
Lab note: record just the number, no unit beside it.

# compound, system-tested, outcome-measure, obs-value
measured = [
    ("Cc1nc2ccc(NS(=O)(=O)c3ccc(C)c(C)c3)cc2s1", "Metabotropic glutamate receptor 8 (Rattus norvegicus)", "z-score", -0.187),
    ("N#C/C(=C\\c1c(N2CCC(C(N)=O)CC2)nc2ccccn2c1=O)C(=O)NCc1ccco1", "Metabotropic glutamate receptor 8 (Rattus norvegicus)", "z-score", -0.0915),
    ("COc1cc(OC)cc(C(=O)NNC(=O)NC2CCCCC2)c1", "Metabotropic glutamate receptor 8 (Rattus norvegicus)", "z-score", -0.0486),
    ("Cc1cccc(NS(=O)(=O)c2ccc3c(c2)OCCO3)c1", "Metabotropic glutamate receptor 8 (Rattus norvegicus)", "z-score", 2.76),
    ("O=S(=O)(Nc1cccnc1)c1ccc2c(c1)OCCO2", "Metabotropic glutamate receptor 8 (Rattus norvegicus)", "z-score", -0.833),
    ("Cc1nc2ccc(NS(=O)(=O)c3ccc4c(c3)OCCO4)cc2s1", "Metabotropic glutamate receptor 8 (Rattus norvegicus)", "z-score", 3.48),
]

input: Could you please provide reported z-score for O=C(NCC(c1cccs1)N1CCOCC1)c1ccccc1NS(=O)(=O)c1ccc(Cl)c([N+](=O)[O-])c1 (centres undefined) ? Thanks!
output: -0.572

input: Could you please provide reported z-score for COc1ccc2cc(C(=O)OC(C)C)sc(=O)c2c1OC ? Thanks!
output: -0.229

input: Could you please provide reported z-score for COC(=O)c1cc(-c2cccc(OC)c2)on1 ? Thanks!
output: -1.1

input: Could you please provide reported z-score for CC(C)CCNC(=O)c1ccc(CSCc2cccc(F)c2)o1 ? Thanks!
output: -3.86

input: Could you please provide reported z-score for CNC(=O)c1ccc(Oc2ccc(C(=O)NC)cc2)cc1 ? Thanks!
output: -0.0105

###

- system-tested: Metabotropic glutamate receptor 8 (Rattus norvegicus) (UniProt P70579)
- Sequence (P70579 whole entry, looked up): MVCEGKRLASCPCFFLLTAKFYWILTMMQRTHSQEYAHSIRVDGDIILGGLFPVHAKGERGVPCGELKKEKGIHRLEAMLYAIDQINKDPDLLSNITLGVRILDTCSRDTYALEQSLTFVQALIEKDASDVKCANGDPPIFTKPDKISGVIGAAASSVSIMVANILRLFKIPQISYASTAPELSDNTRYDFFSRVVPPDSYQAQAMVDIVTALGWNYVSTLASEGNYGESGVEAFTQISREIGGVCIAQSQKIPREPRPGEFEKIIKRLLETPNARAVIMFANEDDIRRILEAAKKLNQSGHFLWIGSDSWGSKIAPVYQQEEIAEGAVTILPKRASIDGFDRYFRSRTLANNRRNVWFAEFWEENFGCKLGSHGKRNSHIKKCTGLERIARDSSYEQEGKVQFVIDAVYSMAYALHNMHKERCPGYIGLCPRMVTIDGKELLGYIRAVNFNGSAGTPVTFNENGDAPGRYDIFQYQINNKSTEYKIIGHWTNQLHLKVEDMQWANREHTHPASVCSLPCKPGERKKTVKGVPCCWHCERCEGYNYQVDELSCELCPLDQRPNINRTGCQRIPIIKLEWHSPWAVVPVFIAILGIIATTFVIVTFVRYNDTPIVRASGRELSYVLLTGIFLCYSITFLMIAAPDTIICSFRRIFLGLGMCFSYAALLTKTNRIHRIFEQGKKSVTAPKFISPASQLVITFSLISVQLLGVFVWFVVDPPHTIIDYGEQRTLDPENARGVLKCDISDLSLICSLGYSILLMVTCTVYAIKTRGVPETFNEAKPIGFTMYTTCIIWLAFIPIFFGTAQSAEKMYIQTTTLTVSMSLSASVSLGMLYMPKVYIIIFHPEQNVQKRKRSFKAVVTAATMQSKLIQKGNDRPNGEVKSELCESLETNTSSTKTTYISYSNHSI
- assay-comment: mGluR8 Gi/Go-coupled signaling modulation – cell-based, rat, thallium flux, HTS, primary screen (AID 488969)
- study-conditions: HEK293 rat mGluR8, GIRK thallium flux, FluoZin2; at 10 µM; stronger effect = higher value; submaximal glutamate (EC20) added with thallium
Over roughly 110,000 compounds, “z-score” has its median near -0.1; the highest 2% begin near 2. This excerpt belongs to a sample that is enriched for the highest values.
Listing of recorded z-score by entry.
Lab note: record just the number, no unit beside it.

# compound, system-tested, obs-value
data = [
    ("CC(=O)N1c2c(ccc3ccccc23)C(C)CC12CCCCC2 (stereo not drawn)", "Metabotropic glutamate receptor 8 (Rattus norvegicus) (UniProt P70579)", -0.635),
    ("CCOC(=O)c1nn(-c2ccccc2)c(=O)cc1SC(C)C", "Metabotropic glutamate receptor 8 (Rattus norvegicus) (UniProt P70579)", -0.0576),
    ("CCCOc1ccc(N2C(=O)CC(N3CCN(c4nc5ccccc5s4)CC3)C2=O)cc1 (stereo not drawn)", "Metabotropic glutamate receptor 8 (Rattus norvegicus) (UniProt P70579)", 0.835),
    ("COc1cc(NC(=O)c2ccc(C)cc2)c(OC)cc1NC(=O)CN1CCOCC1", "Metabotropic glutamate receptor 8 (Rattus norvegicus) (UniProt P70579)", -0.672),
    ("O=C1C2C3C=CC(C3)C2C(=O)N1Cc1ccc(CN2C(=O)C3C4C=CC(C4)C3C2=O)cc1 (stereo not drawn)", "Metabotropic glutamate receptor 8 (Rattus norvegicus) (UniProt P70579)", -0.294),
    ("CCOC(=O)N1CCN(Cc2nc3c(c(=O)n(C)c(=O)n3C)n2Cc2ccccc2C)CC1", "Metabotropic glutamate receptor 8 (Rattus norvegicus) (UniProt P70579)", -0.27),
    ("CCN(c1ccccc1)S(=O)(=O)c1cc(C(=O)Nc2ccccc2Cl)ccc1F", "Metabotropic glutamate receptor 8 (Rattus norvegicus) (UniProt P70579)", 2.19),
    ("Cc1ccc(-c2nn(C)c(=O)c3ccccc23)cc1CNS(C)(=O)=O", "Metabotropic glutamate receptor 8 (Rattus norvegicus) (UniProt P70579)", -0.0971),
    ("C=CCNC(=S)N/N=C/c1cn(-c2ccccc2)nc1-c1ccc(OC)cc1", "Metabotropic glutamate receptor 8 (Rattus norvegicus) (UniProt P70579)", -0.184),
    ("COc1ccc2[nH]c(C)c(C(=O)CN3CC(C)OC(C)C3)c2c1 (stereo not drawn)", "Metabotropic glutamate receptor 8 (Rattus norvegicus) (UniProt P70579)", 2.96),
]

input: Could you please provide reported z-score for COc1ccc2[nH]c(C)c(C(=O)CN3CCOCC3)c2c1 ? Thanks!
output: 0.0884

input: Could you please provide reported z-score for CC(C)c1ccccc1NC(=O)COC(=O)/C=C/c1cccc([N+](=O)[O-])c1 ? Thanks!
output: 5.9

input: Could you please provide reported z-score for Cc1c(NC(=O)CSc2ncn[nH]2)c(=O)n(-c2ccccc2)n1C ? Thanks!
output: 0.565

input: Could you please provide reported z-score for Cc1nc(-c2ccccc2)sc1C(=O)CSc1ccc(Br)cc1 ? Thanks!
output: -0.108

input: Could you please provide reported z-score for O=C1CC(N2CCN(c3nc4ccccc4s3)CC2)C(=O)N1c1cccc(F)c1 (stereo not drawn) ? Thanks!
output: -0.276

input: Could you please provide reported z-score for COc1ccc(OC)c(-c2cc(C(=O)Nc3cc(C)on3)no2)c1 ? Thanks!
output: 0.941

input: Could you please provide reported z-score for O=C(CCc1ccc(S(=O)(=O)NC2CCCCC2)cc1)N(Cc1ccccc1)Cc1ccccc1 ? Thanks!
output: -0.22

input: Could you please provide reported z-score for CCC(C)c1c(O)nc(SCC(=O)N2CCOCC2)[nH]c1=O (stereo not drawn) ? Thanks!
output: 2.93

input: Could you please provide reported z-score for NS(=O)(=O)c1ccc(CCNC(=O)CNC(=O)C2CCCCC2)cc1 ? Thanks!
output: -0.063

input: Could you please provide reported z-score for CC1(C)CNC(=O)C=C(c2ccccc2)C1 ? Thanks!
output: -0.176

input: Could you please provide reported z-score for COc1cc(NC(=O)c2ccccc2)c(OC)cc1NC(=O)CN1CCCCC1 ? Thanks!
output: -0.781

input: Could you please provide reported z-score for Cc1ccc(/C=N\NC(=O)c2cc([N+](=O)[O-])cc([N+](=O)[O-])c2)o1 ? Thanks!
output: 4.57

input: Could you please provide reported z-score for Cc1ccc(/C=N/NC(=O)c2cccc([N+](=O)[O-])c2)o1 ? Thanks!
output: -0.121

input: Could you please provide reported z-score for CCC(=O)Oc1ccc(C(=O)Nc2cccc(C(=O)c3ccccc3)c2)cc1 ? Thanks!
output: 0.022

input: Could you please provide reported z-score for COc1cc(NC(=O)c2ccc(C)cc2)c(OC)cc1NC(=O)CN1CCCCC1 ? Thanks!
output: 2.37

input: Could you please provide reported z-score for O=C(CSc1ncn[nH]1)Nc1nc(-c2ccccc2)cs1 ? Thanks!
output: 0.0129

input: Could you please provide reported z-score for CCCCSc1nc(C)nc2c1c(=O)n(C)c(=O)n2C ? Thanks!
output: -0.303

###

- system-tested: Metabotropic glutamate receptor 8 (Rattus norvegicus)
- assay-comment: mGluR8 Gi/Go-coupled signaling modulation – cell-based, rat, thallium flux, HTS, primary screen (AID 488969)
- study-conditions: HEK293 rat mGluR8, GIRK thallium flux, FluoZin2; at 10 µM; stronger effect = higher value; submaximal glutamate (EC20) added with thallium
Whole data set: some 110,000 compounds, median “z-score” near -0.1, cut for the highest 2% near 2. The list comes from a sample in which the highest values are over-represented; it also holds close analogues and randomly drawn compounds.
outcome-measure: z-score

input: Could you please provide reported z-score for O=C(O)/C=C\C(=O)Nc1ccccc1F ? Thanks!
output: 0.0594

input: Could you please provide reported z-score for CC(C)=C1SC(N2CCN(c3cccc(C(F)(F)F)c3)CC2)=NC1=O ? Thanks!
output: -0.205

###

Listing of recorded z-score by entry.
- system-tested: Metabotropic glutamate receptor 8 (Rattus norvegicus) (UniProt P70579)
- assay-comment: mGluR8 Gi/Go-coupled signaling modulation – cell-based, rat, thallium flux, HTS, primary screen (AID 488969)
- study-conditions: HEK293 rat mGluR8, GIRK (G protein-gated inwardly rectifying potassium channel) thallium flux, FluoZin2; at 10 µM; stronger effect = higher value; submaximal glutamate (EC20) added with thallium
Over roughly 110,000 compounds, “z-score” has its median near -0.1; the highest 2% begin near 2. Only a selection was taken, and the highest values are over-represented in it overall.
Lab note: record just the number, no unit beside it.

Past entries and their recorded results:
# molecule, obs-value
data = [
    ("COC(=O)c1ccccc1NC(=S)NC(=O)COc1ccccc1", 7.01),
    ("S=C(Nc1ccc(Oc2ccccc2)cc1)NC1CCCC1", 7.92),
    ("CNC(=S)N/N=C1\\C(=O)c2cccc3cccc1c23", 14.1),
]

input: Could you please provide reported z-score for CC(C)/C=N/NC(=O)c1ccc(Cl)cc1 ? Thanks!
output: -0.254

input: Could you please provide reported z-score for CNC(=O)CN1C(=O)c2cccc3cccc1c23 ? Thanks!
output: 0.394

input: Could you please provide reported z-score for CCOC(=O)c1ccc(NC(=S)NC2CCCC2)cc1 ? Thanks!
output: 2.61

input: Could you please provide reported z-score for COC(=O)c1ccccc1NC(=S)NC(NC(=O)COc1ccccc1)C(Cl)(Cl)Cl (configuration not stated) ? Thanks!
output: -0.203

input: Could you please provide reported z-score for CCCNC(=S)Nc1ccc(Oc2ccccc2)cc1 ? Thanks!
output: 0.463

input: Could you please provide reported z-score for S=C(NCC1CCCCC1)Nc1ccc(Oc2ccccc2)cc1 ? Thanks!
output: 0.317
